Below, each of the binders is paired with its reported koff value.
Study target: T1, human 5T4-His protein (human, UniProt Q13641 32-355)
T1 construct: also called recombinant 5T4 protein (human 5T4-his tag); human 5T4 protein; not shown: His tag
T1 sequence (looked up): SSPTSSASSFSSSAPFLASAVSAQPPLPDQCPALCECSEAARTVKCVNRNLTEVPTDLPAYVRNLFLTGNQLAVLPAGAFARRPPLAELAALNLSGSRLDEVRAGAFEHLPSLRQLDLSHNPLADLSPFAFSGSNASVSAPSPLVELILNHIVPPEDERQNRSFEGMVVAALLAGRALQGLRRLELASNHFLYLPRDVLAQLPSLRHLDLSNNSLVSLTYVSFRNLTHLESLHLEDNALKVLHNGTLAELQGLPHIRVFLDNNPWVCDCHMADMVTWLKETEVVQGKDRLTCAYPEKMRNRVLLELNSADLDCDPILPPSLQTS
Method notes: SPR Biacore, Protein A capture
State just the number; it will be interpreted in s⁻¹.

| Binder | koff (s⁻¹) |
| --- | --- |
| Hu286B4-8 (antibody, V domains shown, humanized) VH: EVQLQESGPGLVKPSDTLSLTCAVSGYSISNNYYWNWIRQPPGKGLEWIGYITYDGSNNYNPSLKNRITMSRDTSKNQFSLKLSSVTAVDTAVYYCARGGGQLRFDYWGQGTTVTVSS VL: DIQMTQSPSSLSASVGDRVTITCKASQSVSNEVTWYQQKPGKAPKMLIYYASNRYTGVPDRFSGSGYGTDFTFTISSLQPEDIATYYCQQDYSSPWTFGGGTKVEIK | 0.000103 |

Now, please, on to the next binder.
Lab book: koff of Hu286B4-13 (antibody, V domains shown, humanized) VH: EVQLQESGPGLVKPSDTLSLTCAVSGYSISNNYYWNWIRQPPGKGLEWMGYITYDGSNNYNPSLKNRITVSRDTSKNQFSLKLSSVTAVDTAVYYCARGGGQLRFDYWGQGTTVTVSS VL: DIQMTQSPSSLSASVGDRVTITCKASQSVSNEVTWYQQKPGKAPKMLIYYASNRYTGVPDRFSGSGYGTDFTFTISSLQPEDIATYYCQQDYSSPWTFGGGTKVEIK noted as 0.000107
